EXPERIMENTAL_DETAILS: NCI Yeast Anticancer Drug Screen. Data for the sgs1 mgt1 strain (AID 161);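 note: 0% = growth of cultures given vehicle only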
ASSAY_CONDITIONS: S. cerevisiae sgs1 mgt1 strain, at 50.0 µM, hits give high values
Compounds without any hit were thinned out: in the full panel of roughly 79,000, 15% have a hit.
ASSAY_ENDPOINT: growth inhibition (%)

[
  {
    "COMPOUND": "COc1ccc(OCC(C)(C)O)cc1",
    "MEASUREMENT_UNITS": "%",
    "MEAS_VALUE": 5.6
  },
  {
    "COMPOUND": "ClC1=C(Cl)C2(Cl)C3C(CC4C3C3(Cl)C(Cl)=C(Cl)C4(Cl)C3(Cl)Cl)C1(Cl)C2(Cl)Cl (stereo unspecified)",
    "MEASUREMENT_UNITS": "%",
    "MEAS_VALUE": -2.75
  },
  {
    "COMPOUND": "Cc1c(C)c(Br)c(C)c(C)c1Br",
    "MEASUREMENT_UNITS": "%",
    "MEAS_VALUE": 4.25
  },
  {
    "COMPOUND": "CCOc1nc(N)nc(C)c1N=Nc1ccccc1OC",
    "MEASUREMENT_UNITS": "%",
    "MEAS_VALUE": 14.4
  },
  {
    "COMPOUND": "CC1(C)C2CC=C(/C=N\\Nc3ccc([N+](=O)[O-])cc3[N+](=O)[O-])C1C2 (stereo unspecified)",
    "MEASUREMENT_UNITS": "%",
    "MEAS_VALUE": -2.3
  },
  {
    "COMPOUND": "CCC(C(=O)c1ccccc1)C1(C(=O)OC)NC(=S)NC(=O)C1C#N (stereo unspecified)",
    "MEASUREMENT_UNITS": "%",
    "MEAS_VALUE": -2.55
  },
  {
    "COMPOUND": "O=[N+]([O-])c1ccc(OCCO)c([N+](=O)[O-])c1",
    "MEASUREMENT_UNITS": "%",
    "MEAS_VALUE": -22.4
  },
  {
    "COMPOUND": "CC1CC(N2CSC(=S)N(C3CC(C)CC(C)(C)C3)C2)CC(C)(C)C1 (stereo unspecified)",
    "MEASUREMENT_UNITS": "%",
    "MEAS_VALUE": -4.55
  },
  {
    "COMPOUND": "O=C(c1cccs1)N(C(=S)N1CCN(c2ccccc2)CC1)c1ccccc1",
    "MEASUREMENT_UNITS": "%",
    "MEAS_VALUE": 4.55
  },
  {
    "COMPOUND": "COc1cc2ccccc2ccc1=O",
    "MEASUREMENT_UNITS": "%",
    "MEAS_VALUE": -6.45
  },
  {
    "COMPOUND": "O=C(Cc1ccccc1)NN1C(=O)/C(=C\\c2cccc([N+](=O)[O-])c2)SC1=Nc1ccccc1",
    "MEASUREMENT_UNITS": "%",
    "MEAS_VALUE": 9.95
  }
]

----------
EXPERIMENTAL_DETAILS: NCI Yeast Anticancer Drug Screen. Data for the mlh1 rad18 strain (AID 175)
ASSAY_CONDITIONS: S. cerevisiae mlh1 rad18 strain growth inhibition; at 50.0 µM; hits give high values
Compounds without any hit were thinned out: in the full panel of roughly 79,000, 15% have a hit.

[
  {
    "COMPOUND": "CC[P+](C)(Cc1ccccc1)c1ccccc1 (stereo unspecified)",
    "MEASUREMENT_UNITS": "%",
    "growth inhibition": 21.3
  },
  {
    "COMPOUND": "CCOC(C)(C(=O)O)c1cccc2ccccc12 (stereo unspecified)",
    "MEASUREMENT_UNITS": "%",
    "growth inhibition": 14.8
  },
  {
    "COMPOUND": "CC1(C)C2CC3C(=CCC4C(=O)C5CC=C6C(CC7CC6C7(C)C)C5C(=O)C43)C1C2 (stereo unspecified)",
    "MEASUREMENT_UNITS": "%",
    "growth inhibition": -1.65
  },
  {
    "COMPOUND": "CCN(CC)CCCC(C)Nc1cc(C)c2nc(C)cc(C)c2c1C (stereo unspecified)",
    "MEASUREMENT_UNITS": "%",
    "growth inhibition": -18.6
  },
  {
    "COMPOUND": "O=C(NCP(=O)(c1ccccc1)c1ccccc1)OCc1ccccc1",
    "MEASUREMENT_UNITS": "%",
    "growth inhibition": 6.6
  },
  {
    "COMPOUND": "COc1ccc(C2C3=C(CCCC3=O)N(c3ccccc3)C3=C2C(=O)CCC3)cc1",
    "MEASUREMENT_UNITS": "%",
    "growth inhibition": -27.5
  },
  {
    "COMPOUND": "O=C(Cc1ccccc1)NC(CSCc1ccccc1)C(=O)O (stereo unspecified)",
    "MEASUREMENT_UNITS": "%",
    "growth inhibition": 40.2
  },
  {
    "COMPOUND": "CCCNC(=O)N(CCC)S(=O)(=O)c1ccc(Cl)cc1",
    "MEASUREMENT_UNITS": "%",
    "growth inhibition": 25.6
  },
  {
    "COMPOUND": "NC(=O)Cc1[nH]ccc1C(=O)O",
    "MEASUREMENT_UNITS": "%",
    "growth inhibition": 12.1
  },
  {
    "COMPOUND": "CSCCC(C(=O)O)N(CC1(O)OCC(O)C(O)C1O)N=O (stereo unspecified)",
    "MEASUREMENT_UNITS": "%",
    "growth inhibition": -11.2
  },
  {
    "COMPOUND": "NC(=O)c1cn(C2OC(CO)C(O)C2O)c2nc(N)nc(N)c2c1=O (stereo unspecified)",
    "MEASUREMENT_UNITS": "%",
    "growth inhibition": 45.1
  }
]

----------
EXPERIMENTAL_DETAILS: NCI Yeast Anticancer Drug Screen. Data for the cln2 rad14 strain (AID 165);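 note: 0% = growth equal to vehicle treated cultures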
ASSAY_CONDITIONS: S. cerevisiae cln2 rad14 strain, at 50.0 µM, hits give high values
This is part of a sample that, as a whole, favours compounds with a hit. Of some 79,000 tested, about 15% had one in any assay.
Would you mind labelling by growth inhibition? At or over -10% is 1, under is -1.

[
  {
    "COMPOUND": "Cc1cnc2[nH]c(-c3ccccc3)cc(=O)c2c1",
    "QUALITATIVE_LABEL": -1
  },
  {
    "COMPOUND": "O=C(c1ccc(OC(=O)c2ccccc2O)cc1)c1ccc(OC(=O)c2ccccc2O)cc1",
    "QUALITATIVE_LABEL": -1
  },
  {
    "COMPOUND": "COc1ccc(/C=C/c2nc(=S)[nH][nH]2)cc1OC",
    "QUALITATIVE_LABEL": 1
  },
  {
    "COMPOUND": "CC1CC(=O)Nc2nc(N)ncc21 (centres undefined)",
    "QUALITATIVE_LABEL": 1
  },
  {
    "COMPOUND": "c1ccc(-c2ccc(-c3ccccc3)c3nonc23)cc1",
    "QUALITATIVE_LABEL": 1
  },
  {
    "COMPOUND": "CCOC(=O)c1sc2c(c1OC(=O)c1ccccc1)c(=O)n(-c1ccccc1)c(=S)n2-c1ccccc1",
    "QUALITATIVE_LABEL": 1
  },
  {
    "COMPOUND": "CC(=O)Oc1ccc2c(-c3ccccc3)c(Oc3ccc(Cl)cc3)c(=O)oc2c1",
    "QUALITATIVE_LABEL": -1
  },
  {
    "COMPOUND": "COC(=O)C1Cc2ccccc2C1=O (centres undefined)",
    "QUALITATIVE_LABEL": -1
  },
  {
    "COMPOUND": "Cc1ccc(-c2ccc(C)cc2)cc1",
    "QUALITATIVE_LABEL": -1
  },
  {
    "COMPOUND": "Cc1cc(NC(C)C)c(C)cc1NC(C)C",
    "QUALITATIVE_LABEL": 1
  },
  {
    "COMPOUND": "CCOC(=O)c1cc2ccccc2oc1=O",
    "QUALITATIVE_LABEL": 1
  },
  {
    "COMPOUND": "Cc1ccc(C2(c3ccc(Cl)cc3)c3ccccc3C3=NCCN32)cc1 (centres undefined)",
    "QUALITATIVE_LABEL": 1
  },
  {
    "COMPOUND": "COc1ccc2c(c1)CC1(CC2)CCN(CCCN(C)C)CC1",
    "QUALITATIVE_LABEL": 1
  },
  {
    "COMPOUND": "CC(=O)OC12c3ccccc3-c3ccccc3C1C1C(=O)N(C)C(=O)C12Cl (centres undefined)",
    "QUALITATIVE_LABEL": 1
  },
  {
    "COMPOUND": "COc1ccc(C(=O)/C=C/c2ccc(OCCCOc3ccc(/C=C/C(=O)c4ccc(OC)cc4)cc3)cc2)cc1",
    "QUALITATIVE_LABEL": -1
  },
  {
    "COMPOUND": "COC1(c2ccccc2)OC(=O)C(C)(C)c2ccccc21 (centres undefined)",
    "QUALITATIVE_LABEL": 1
  },
  {
    "COMPOUND": "Nc1nc(Sc2ccc([N+](=O)[O-])c3nonc23)c2ncn(C3OC(CO)C(O)C3O)c2n1 (centres undefined)",
    "QUALITATIVE_LABEL": 1
  },
  {
    "COMPOUND": "CC(=O)Nc1cc2cc(NC=C(C#N)C#N)ccc2oc1=O",
    "QUALITATIVE_LABEL": 1
  },
  {
    "COMPOUND": "O=C(CNS(=O)(=O)c1ccccc1)c1ccc(Cl)cc1Cl",
    "QUALITATIVE_LABEL": 1
  },
  {
    "COMPOUND": "Cc1ccc2c(c1)C(=O)c1cc(C)cc(C(=O)O)c1-2",
    "QUALITATIVE_LABEL": -1
  },
  {
    "COMPOUND": "COC(=O)c1cnc2nc(N3CCOCC3)[nH]n2c1=O",
    "QUALITATIVE_LABEL": 1
  },
  {
    "COMPOUND": "CNC(=O)C1CCCN1C(=O)C(Cc1cnc[nH]1)NC(=O)C1CCC(=O)N1 (centres undefined)",
    "QUALITATIVE_LABEL": 1
  },
  {
    "COMPOUND": "COC1OCC(O)C(O)C1OC (centres undefined)",
    "QUALITATIVE_LABEL": -1
  },
  {
    "COMPOUND": "CN(C)CCNC(=O)c1cnn(C)c1[N+](=O)[O-]",
    "QUALITATIVE_LABEL": 1
  }
]
